tested system: T1, SRA-Spacer (human, UniProt Q96T88 414-674)
T1 sequence: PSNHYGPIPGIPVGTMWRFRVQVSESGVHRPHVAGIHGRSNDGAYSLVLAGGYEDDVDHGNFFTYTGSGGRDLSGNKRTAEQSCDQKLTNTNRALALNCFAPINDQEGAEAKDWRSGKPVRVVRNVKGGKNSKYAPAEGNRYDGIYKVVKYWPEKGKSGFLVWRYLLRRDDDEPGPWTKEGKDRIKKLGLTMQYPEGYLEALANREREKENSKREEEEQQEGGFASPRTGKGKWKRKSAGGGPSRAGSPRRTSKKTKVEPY
assay details: FP; 50 mM NaCl; ITC: 10 mM HEPES pH 8.0, 100 mM NaCl, 18 C; EMSA: 20 mM HEPES pH 7.5, 100 mM NaCl, 8% glycerol, 1 mM DTT, on ice; pull-down: 20 mM HEPES-NaOH pH 8.0, 100 mM NaC
measurement type: Kd (nM)
Report as a plain number; the unit nM is understood.

**Query** Sample FAM-12bp-HM-DNA (dsDNA, 5-methyl-dC at position 6 of strand 2 (GTCAGXGCATGG)) DNA 1: CCATGCGCTGAC DNA 2: GTCAGCGCATGG — what was its Kd?
**Result** 24
